- Tested on: SEM cells
- assayOverview: cell viability relative to DMSO control; higher = less cytotoxic
- conditionsUsed: RPMI 5 mM glucose + 10% dialyzed FBS; 48 h; 1.71 µM
measureName: cell viability
Please state the number and follow it with the unit.

-- ask Could you share what cell viability was measured for "CCC[C@@H](C=O)NC(=O)[C@H](CC(C)C)NC(=O)[C@H](CC(C)C)NC(=O)OCc1ccccc1" , tested on SEM cells?
-- reply 45.7%

-- ask // same read-out, input: "COC/1=C/[C@@H]2[C@@H]3CC4=C(C(=C(OC)C=C4)O)[C@]2(CCN3C)CC1=O"
-- reply 127%

-- ask // same read-out, input: "CO[C@H]1/C=C/O[C@@]2(C)Oc3c(C)c(O)c4c(O)c(c(/C=N\N5CCN(C6CCCC6)CC5)c(O)c4c3C2=O)NC(=O)/C(C)=C\C=C\[C@H](C)[C@H](O)[C@@H](C)[C@@H](O)[C@@H](C)[C@H](OC(C)=O)[C@@H]1C"
-- reply 2.82%

-- ask // same read-out, input: "O=C(/C=C/C=C/c1ccc2c(c1)OCO2)N1CCCCC1"
-- reply 131%

-- ask // same read-out, input: "Clc1ccccc1C(c1ccccc1)(c1ccccc1)n1cccn1"
-- reply 122%

-- ask // same read-out, input: "Cc1ccc(NC(=O)Nc2cc(C(F)(F)F)ccc2F)cc1Nc1ccc2c(c1)NC(=O)/C2=C\c1ccc[nH]1"
-- reply 124%

-- ask // same read-out, input: O=P1(N(CCCl)CCCl)NCCCO1 (stereo not drawn)
-- reply 84%

-- ask // same read-out, input: "CN1CCN(Cc2ccc(NC(=O)Nc3ccc(Oc4cc(NC(=O)C5CC5)ncn4)cc3)cc2C(F)(F)F)CC1"
-- reply 4.22%

-- ask // same read-out, input: "C/C(=C\c1csc(C)n1)[C@@H]1C[C@@H]2O[C@]2(C)CCC[C@H](C)[C@H](O)[C@@H](C)C(=O)C(C)(C)[C@@H](O)CC(=O)O1"
-- reply 16.2%

-- ask // same read-out, input: "Cn1cnc(-c2cc3nccc(Oc4ccc(NC(=S)NC(=O)Cc5ccccc5)cc4F)c3s2)c1"
-- reply 25.4%

-- ask // same read-out, input: Oc1cc2c(cc1O)C1c3ccc(O)c(O)c3OCC1(O)C2 (stereo not drawn)
-- reply 106%

-- ask // same read-out, input: "C/C(=C\c1csc(C)n1)[C@@H]1C[C@@H]2O[C@@H]2CCC[C@H](C)[C@H](O)[C@@H](C)C(=O)C(C)(C)[C@@H](O)CC(=O)O1"
-- reply 15.2%

-- ask // same read-out, input: "O=C(NCCO[N+](=O)[O-])c1cccnc1"
-- reply 105%

-- ask // same read-out, input: "O=C(O)CCNc1cc(N2CCc3ccccc3CC2)nc(-c2ccccn2)n1"
-- reply 112%

-- ask // same read-out, input: CCCNCC(O)COc1ccccc1C(=O)CCc1ccccc1 (stereo not drawn)
-- reply 104%

-- ask // same read-out, input: "NC/1=N/C(=O)N(C[C@@H](CO)OC[P](O)(O)=O)/C=C1"
-- reply 123%

-- ask // same read-out, input: "O=C(C[C@@H]1C/C=C\CCC(=O)O[C@H](c2ccccc2)CNC1=O)NCc1ccc(Cl)cc1"
-- reply 104%

-- ask // same read-out, input: "Cc1cc(SCc2sc(-c3ccc(C(F)(F)F)cc3)nc2C)ccc1OCC(=O)O"
-- reply 109%

-- ask // same read-out, input: "Cn1c(=O)c2[nH]cnc2n(C)c1=O"
-- reply 114%

-- ask // same read-out, input: "CN(C)CC[C@H](CSc1ccccc1)Nc1ccc([S+](=O)([O-])NC(=O)c2ccc(N3CCN(Cc4ccccc4-c4ccc(Cl)cc4)CC3)cc2)cc1[N+](=O)[O-]"
-- reply 8.96%

-- ask // same read-out, input: "CN(CCOc1ccc(NS(C)(=O)=O)cc1)CCc1ccc(NS(C)(=O)=O)cc1"
-- reply 104%

-- ask // same read-out, input: "NCCCC(O)(P(=O)(O)O)P(=O)(O)O.O.O.O.[Na+]"
-- reply 116%

-- ask // same read-out, input: "FC1=CC=C(CN2\C=C/C=C(/C(=O)N[C@@H](COC3=CC4=C(NC(=O)N4)C=C3)C5=CC=CC=C5)C2=O)C=C1F"
-- reply 76.9%

-- ask // same read-out, input: "CCCCCCCCOc1ccccc1C(=O)Nc1ccc(C(=O)OCC[N+](C)(CC)CC)cc1"
-- reply 95.3%

-- ask // same read-out, input: "O=[S+]([O-])(/N=C/c1c(O)ccc2ccccc12)c1cccs1"
-- reply 79.5%

-- ask // same read-out, input: "O=C([O-])[C@H](CC(=O)N1C[C@H]2CCCC[C@H]2C1)Cc1ccccc1"
-- reply 105%

-- ask // same read-out, input: "CN[C@H]1[C@H](O[C@@H]2[C@H](O[C@@H]3[C@@H](O)[C@@H](O)[C@@H](NC(=N)N)[C@@H](O)[C@H]3NC(=N)N)O[C@H](C)[C@@]2(O)C=O)O[C@@H](CO)[C@@H](O)[C@H]1O"
-- reply 80.4%

-- ask // same read-out, input: "CC(C)C(=O)Nc1ncc(-c2cc(C(F)F)nn2-c2c(Cl)cccc2Cl)s1"
-- reply 142%

----------
- Test system: NOMO1
- assayOverview: AUC of viability dose-response curve (% viability x log10 dose units); higher = less sensitive
- conditionsUsed: RPMI 5 mM glucose + 10% dialyzed FBS; 48 h
measureName: AUC of viability dose-response curve
Just the number, please, no unit after it.

-- ask Could you share what AUC of viability dose-response curve was measured for "C=CC(=O)Nc1cccc(Oc2nc(Nc3ccc(N4CCN(C)CC4)cc3OC)ncc2Cl)c1" , tested on NOMO1?
-- reply 362

-- ask // same read-out, input: "O=C(O)c1ccc(-c2c[nH]c3ncc(-c4ccccc4)cc23)cc1C1CCCC1"
-- reply 468

-- ask // same read-out, input: "C[C@H](NC(=O)Cc1cc(F)cc(F)c1)C(=O)N[C@@H]1C(=O)N(C)c2ccccc2-c2ccccc21"
-- reply 434

-- ask // same read-out, input: "Cc1ccc(NC(=O)c2cccc(N(C)C)c2)cc1NC(=O)c1ccc(O)cc1"
-- reply 470

-- ask // same read-out, input: "CCCCCCCCOc1ccccc1C(=O)Nc1ccc(C(=O)OCC[N+](C)(CC)CC)cc1"
-- reply 413

----------
Would you mind telling me the reported cell viability of each entry?
- Tested on: NOMO1
- assayOverview: cell viability relative to DMSO control; higher = less cytotoxic
- conditionsUsed: RPMI 5 mM glucose + 10% FBS; 48 h; 0.00234 µM
Please state the number and follow it with the unit.

-- ask Could you share what cell viability was measured for COc1nccc(-c2c(-c3ccc(F)cc3)ncn2C2CCC(O)CC2)n1 (centres undefined) , tested on NOMO1?
-- reply 109%

-- ask // same read-out, input: "O=C(Nc1ccc([N+](=O)[O-])cc1Cl)c1cc(Cl)ccc1O"
-- reply 86.4%

-- ask // same read-out, input: "CCNC(=O)Nc1ccc(-c2nc3c(c(N4CCOC[C@@H]4C)n2)CCN(C2COC2)C3)cc1"
-- reply 102%

-- ask // same read-out, input: "CN1/C=C(\N=C(NC2=CC=C(C=C2)C(=O)N3CCOCC3)/C1=O)/C4=C(C)C(=CC=C4)NC(=O)C5=CC=C(C=C5)C(C)(C)C"
-- reply 84.4%

----------
- System: NOMO1
- assayOverview: cell viability relative to DMSO control; higher = less cytotoxic
- conditionsUsed: HPLM + 10% dialyzed FBS; 48 h; 0.569 µM
measureName: cell viability (%)
Kindly provide the numeric value in % only, without the unit symbol.

-- ask # query: cell viability of entry "CCCc1nc2c(C)cc(-c3nc4ccccc4n3C)cc2n1Cc1ccc(-c2ccccc2C(=O)O)cc1"
-- reply 136

-- ask // same read-out, input: "Cn1c(=O)c2[nH]cnc2n(C)c1=O"
-- reply 120

-- ask // same read-out, input: "CN(C)CC[C@H](CSc1ccccc1)Nc1ccc([S+](=O)([O-])NC(=O)c2ccc(N3CCN(Cc4ccccc4-c4ccc(Cl)cc4)CC3)cc2)cc1[N+](=O)[O-]"
-- reply 96.7

-- ask // same read-out, input: "COc1ccc(C(=O)CC(=O)c2ccc(C(C)(C)C)cc2)cc1"
-- reply 131

----------
- System: SEM cells
- assayOverview: AUC of viability dose-response curve (% viability x log10 dose units); higher = less sensitive
- conditionsUsed: HPLM + 10% dialyzed FBS; 48 h
// assign true if AUC of viability dose-response curve falls strictly below 400, else false (ties count as false)

-- ask I wonder whether CCC(=O)OC1CCC2C3CCC/4=C/C(=O)CC[C@@]4(C)C3CC[C@]12C (stereo partly specified) has AUC of viability dose-response curve below 400. Can you tell?
-- reply false

-- ask // same read-out, input: "COC(=O)Nc1ccc(-c2nc(N3CCOCC3)c3cnn(C4CCN(Cc5cccnc5)CC4)c3n2)cc1"
-- reply true

-- ask // same read-out, input: CCCNCC(O)COc1ccccc1C(=O)CCc1ccccc1 (stereo unspecified)
-- reply false

-- ask // same read-out, input: "Cn1cc(-c2cnn3c(N)c(Br)c([C@@H]4CCCNC4)nc23)cn1"
-- reply true

-- ask // same read-out, input: OC(CCN1CCCCC1)(C2CC\3CC2\C=C3)C4=CC=CC=C4 (stereo unspecified)
-- reply false

-- ask // same read-out, input: "CN1\N=N/C2=C(N=C[N]2C1=O)C(N)=O"
-- reply true

-- ask // same read-out, input: "NCCS(=O)(=O)O"
-- reply false

-- ask // same read-out, input: "Cn1cnc2c(F)c(Nc3ccc(Br)cc3Cl)c(C(=O)NOCCO)cc21"
-- reply true

-- ask // same read-out, input: COc1ccccc1OCCNCC(O)COc1cccc2[nH]c3ccccc3c12 (stereo unspecified)
-- reply false

-- ask // same read-out, input: "CN(CCOc1ccc(NS(C)(=O)=O)cc1)CCc1ccc(NS(C)(=O)=O)cc1"
-- reply false

-- ask // same read-out, input: "COc1cccc2c(NCc3ccccc3)nc(-n3c(N)nc4ccccc43)nc12"
-- reply true

-- ask // same read-out, input: "O=[S+]([O-])(F)Cc1ccccc1"
-- reply false

-- ask // same read-out, input: "O=C(/C=C/C=C/c1ccc2c(c1)OCO2)N1CCCCC1"
-- reply false

-- ask // same read-out, input: "O=C(Nc1ccc([N+](=O)[O-])cc1Cl)c1cc(Cl)ccc1O"
-- reply true

-- ask // same read-out, input: "CNNCc1ccc(C(=O)NC(C)C)cc1"
-- reply false

-- ask // same read-out, input: "OCCn1cc(-c2ccc3c(c2)CC/C3=N\O)c(-c2ccncc2)n1"
-- reply false
